target: Telomerase reverse transcriptase (Homo sapiens); test: Inhibitory activity against telomerase extracted from HCT 116 cell lines
Sequence (O14746 whole entry): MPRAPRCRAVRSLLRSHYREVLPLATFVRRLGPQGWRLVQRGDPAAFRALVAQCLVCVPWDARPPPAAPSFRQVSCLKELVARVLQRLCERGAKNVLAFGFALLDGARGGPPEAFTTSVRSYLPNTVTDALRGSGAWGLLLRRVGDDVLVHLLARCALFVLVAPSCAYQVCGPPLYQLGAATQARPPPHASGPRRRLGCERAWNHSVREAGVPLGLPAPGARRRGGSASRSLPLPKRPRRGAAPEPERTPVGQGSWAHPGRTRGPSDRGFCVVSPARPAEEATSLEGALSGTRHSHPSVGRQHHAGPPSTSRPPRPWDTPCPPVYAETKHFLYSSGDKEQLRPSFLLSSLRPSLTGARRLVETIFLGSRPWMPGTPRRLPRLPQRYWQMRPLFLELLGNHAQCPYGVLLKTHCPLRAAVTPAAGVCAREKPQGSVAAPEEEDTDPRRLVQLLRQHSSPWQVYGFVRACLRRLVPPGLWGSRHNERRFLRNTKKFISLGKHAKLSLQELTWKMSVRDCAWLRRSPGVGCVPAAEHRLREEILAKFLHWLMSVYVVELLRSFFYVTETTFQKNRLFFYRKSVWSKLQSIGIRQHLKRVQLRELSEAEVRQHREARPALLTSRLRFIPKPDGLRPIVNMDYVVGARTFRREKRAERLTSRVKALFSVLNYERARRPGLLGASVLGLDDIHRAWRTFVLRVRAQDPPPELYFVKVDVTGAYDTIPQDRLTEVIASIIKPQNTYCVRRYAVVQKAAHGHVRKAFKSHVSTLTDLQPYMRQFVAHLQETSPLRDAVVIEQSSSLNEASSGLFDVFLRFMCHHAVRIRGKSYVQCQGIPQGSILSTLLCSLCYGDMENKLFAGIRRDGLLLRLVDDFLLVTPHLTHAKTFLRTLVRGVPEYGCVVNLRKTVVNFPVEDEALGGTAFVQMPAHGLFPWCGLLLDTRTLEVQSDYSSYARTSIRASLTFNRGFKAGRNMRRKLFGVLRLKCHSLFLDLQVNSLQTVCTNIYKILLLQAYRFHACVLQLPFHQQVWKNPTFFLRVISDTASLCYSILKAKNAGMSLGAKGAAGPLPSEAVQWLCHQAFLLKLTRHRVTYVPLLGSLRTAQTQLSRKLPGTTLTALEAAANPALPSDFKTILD
pIC50: −log10 of the molar value.
Quick rule for you: pIC50 at 5 or higher means rule met, lower means rule not met.

| compound | classLabel |
| --- | --- |
| CC(C)(C)OC(=O)N[C@H](Cc1cc2ccccc2[nH]1)C(=O)N[C@H](Cc1c[nH]c2ccccc12)C(=O)NCCCCCCCCCCCCOP(=O)(O)Oc1ccccc1Cl | rule not met |
| CC(=O)N[C@H](Cc1c[nH]c2ccccc12)C(=O)NCCCCCCCCCCCCOP(=O)(O)Oc1ccccc1Cl | rule not met |
| CC(C)(C)OC(=O)N[C@H](CCC(=O)OCc1ccccc1)C(=O)N[C@H](Cc1c[nH]c2ccccc12)C(=O)NCCCCCCCCCCCCOP(=O)(O)Oc1ccccc1Cl | rule met |
| CC(C)(C)OC(=O)N[C@H](Cc1cc2ccccc2[nH]1)C(=O)N[C@@H](Cc1c[nH]c2ccccc12)C(=O)NCCCCCCCCCCCCOP(=O)(O)Oc1ccccc1Cl (racemic) | rule not met |

Task item: In plain terms: is recorded pIC50 at least 5 for CC(C)(C)OC(=O)N[C@@H](Cc1c[nH]c2ccccc12)C(=O)NCCCCCCCCCCCCOP(=O)(O)Oc1ccccc1Cl ?
Reply: rule not met

Task item: # repeat for CC(C)(C)OC(=O)N[C@@H](Cc1cc2ccccc2[nH]1)C(=O)N[C@@H](Cc1c[nH]c2ccccc12)C(=O)NCCCC(=O)NCC(=O)NCCCCCCOP(=O)(O)Oc1ccccc1Cl
Reply: rule not met

Task item: # repeat for N[C@H](CCC(=O)O)C(=O)N[C@H](Cc1c[nH]c2ccccc12)C(=O)NCCCCCCCCCCCCOP(=O)(O)Oc1ccccc1Cl
Reply: rule not met

Task item: # repeat for Cc1cn(CCCn2cc(CC(=O)NCCOCCOCCOCCOP(=O)(O)Oc3ccccc3Cl)c3ccccc32)c2ccccc12
Reply: rule not met

Task item: # repeat for CC(C)(C)OC(=O)N[C@H](Cc1ccccc1)C(=O)N[C@H](Cc1c[nH]c2ccccc12)C(=O)NCCCCCCCCCCCCOP(=O)(O)Oc1ccccc1Cl
Reply: rule met

----------
molecular target: Telomerase reverse transcriptase (Homo sapiens); assay: Inhibitory activity against telomerase extracted from HCT 116 cell lines
Kindly state IC50 for each of the entries shown.
Give bare numbers, in µM.

| compoundSmiles | unitAbbreviation | valueReported |
| --- | --- | --- |
| N[C@H](Cc1cc2ccccc2[nH]1)C(=O)N[C@H](Cc1c[nH]c2ccccc12)C(=O)NCCCCCCCCCCCCOP(=O)(O)Oc1ccccc1Cl | µM | 13.7 |
| O=C(CNC(=O)OCc1ccccc1)N[C@H](Cc1c[nH]c2ccccc12)C(=O)NCCCCCCCCCCCCOP(=O)(O)Oc1ccccc1Cl | µM | 12.1 |
| CC(C)(C)OC(=O)N1CCC[C@@H]1C(=O)N[C@H](Cc1c[nH]c2ccccc12)C(=O)NCCCCCCCCCCCCOP(=O)(O)Oc1ccccc1Cl | µM | 9.5 |

Kindly consider the entry below.
Task item: So what IC50 did O=C(N[C@H](Cc1c[nH]c2ccccc12)C(=O)NCCCCCCCCCCCCOP(=O)(O)Oc1ccccc1Cl)c1ccccc1 get with Telomerase reverse transcriptase (Homo sapiens)?
Reply: 7.3
